The reported numbers originate from patent US20110306621A1.

Structures can show the parent of a compound that is named as a salt.
Entries with their measured Ki, system human 5-HT5A receptor (Homo sapiens):

// solved cases for Ki follow
Molecule | Ki
NC(N)=NC(=O)c1ccc2cccc(-c3cc(C(F)(F)F)ccn3)c2c1 | 30 to 300 nM
NC(N)=NC(=O)c1ccc2cccc(-c3ccnc4ccccc34)c2c1 | 0.3 to 3 nM
Cc1cc(-c2cccc3ccc(C(=O)N=C(N)N)cc23)cc(C)n1 | 3 to 30 nM
COc1cccc(-c2cccc3ccc(C(=O)N=C(N)N)cc23)c1F | 3 to 30 nM
NC(N)=NC(=O)c1ccc2cccc(-c3c(F)cccc3Cl)c2c1 [Example 1, hydrochloride] | 0.96 nM
COc1ccc(C#N)cc1-c1cccc2ccc(C(=O)N=C(N)N)cc12 | 3 to 30 nM
NC(N)=NC(=O)c1ccc2cccc(-c3ncccc3Cl)c2c1 | 3 to 30 nM
NC(N)=NC(=O)c1ccc2cccc(-c3ncc(C4CC4)cc3Cl)c2c1 | 3 to 30 nM

So what Ki did NC(N)=NC(=O)c1ccc2cccc(-c3c(F)cccc3C3CC3)c2c1 get with human 5-HT5A receptor (Homo sapiens)?
0.3 to 3 nM

----------
Molecular target: human 5-HT5A receptor (Homo sapiens, UniProt P47898)
Sequence (P47898 whole entry): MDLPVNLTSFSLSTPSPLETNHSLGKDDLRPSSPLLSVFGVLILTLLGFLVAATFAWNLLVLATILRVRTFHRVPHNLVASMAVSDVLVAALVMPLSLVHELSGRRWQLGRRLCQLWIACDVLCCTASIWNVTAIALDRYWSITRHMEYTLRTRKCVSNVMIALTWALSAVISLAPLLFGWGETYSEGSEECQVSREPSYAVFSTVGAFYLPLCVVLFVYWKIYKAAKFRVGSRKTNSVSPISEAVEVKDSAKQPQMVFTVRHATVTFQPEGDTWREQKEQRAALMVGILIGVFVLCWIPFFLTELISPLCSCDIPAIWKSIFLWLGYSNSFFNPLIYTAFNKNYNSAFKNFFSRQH
Test readout: Ki

Please report the recorded Ki for NC(N)=NC(=O)c1ccc2ccc(Cl)c(-c3ccncc3Cl)c2c1 .
0.3 to 3 nM

Same thing, different molecule: CCOc1ncc(Cl)c(-c2cccc3ccc(C(=O)N=C(N)N)cc23)c1F
0.3 to 3 nM

Same thing, different molecule: NC(N)=NC(=O)c1ccc2cccc(-c3ccccc3F)c2c1
0.3 to 3 nM

Same thing, different molecule: NC(N)=NC(=O)c1ccc2cccc(-c3c(O)cc(F)cc3F)c2c1
0.3 to 3 nM

Same thing, different molecule: N#Cc1cc(F)ccc1-c1cccc2ccc(C(=O)N=C(N)N)cc12
3 to 30 nM

Same thing, different molecule: NC(N)=NC(=O)c1ccc2cccc(-c3cc(C4CC4)ncc3F)c2c1
3 to 30 nM

Same thing, different molecule: N#Cc1ccc(F)cc1-c1cccc2ccc(C(=O)N=C(N)N)cc12
30 to 300 nM

Same thing, different molecule: N#Cc1cccnc1-c1cccc2ccc(C(=O)N=C(N)N)cc12
30 to 300 nM

----------
Target: human 5-HT5A receptor (Homo sapiens, UniProt P47898)
Ki overview

// solved cases for Ki follow
Structure notation | Ki
NC(N)=NC(=O)c1ccc2cccc(-c3nccc4ccccc34)c2c1 | 3 to 30 nM
COCc1cc(F)c(-c2cccc3ccc(C(=O)N=C(N)N)cc23)c(F)c1 | 3 to 30 nM
NC(N)=NC(=O)c1ccc2cccc(-c3ncccc3C(F)(F)F)c2c1 | 30 to 300 nM
N#Cc1cc(F)c(-c2cccc3ccc(C(=O)N=C(N)N)cc23)c(F)c1 | 0.3 to 3 nM
NC(N)=NC(=O)c1ccc2cccc(-c3c(F)cc(F)cc3Cl)c2c1 | 0.3 to 3 nM
NC(N)=NC(=O)c1ccc2cccc(-c3ccccc3C3CC3)c2c1 | 0.3 to 3 nM
NC(N)=NC(=O)c1ccc2cccc(-c3c(F)cccc3OC(F)F)c2c1 | 0.3 to 3 nM
COc1cc(C#N)ccc1-c1c(Cl)ccc2ccc(C(=O)N=C(N)N)cc12 | 0.3 to 3 nM
NC(N)=NC(=O)c1ccc2cccc(-c3cccc4c3OCC4)c2c1 | 0.3 to 3 nM
COc1cc(C#N)ccc1-c1ccc(F)c2ccc(C(=O)N=C(N)N)cc12 | 0.3 to 3 nM

Let us move to another entry and its Ki.
Please report the recorded Ki for N#Cc1cc(Cl)ccc1-c1cccc2ccc(C(=O)N=C(N)N)cc12 .
3 to 30 nM

----------
Molecular target: human 5-HT5A receptor (Homo sapiens)
Test readout: Ki

// solved cases for Ki follow
Molecule | Ki
NC(N)=NC(=O)c1ccc2cccc(-c3cccnc3Cl)c2c1 [Example 19] | 3 to 30 nM
N#Cc1cccc(-c2cccc3ccc(C(=O)N=C(N)N)cc23)c1F [Example 80] | 0.3 to 3 nM
Cc1ccc2ccc(C(=O)N=C(N)N)cc2c1-c1ccc(F)cc1 [Example 11] | 0.3 to 3 nM

Please report the recorded Ki for COc1ccc(F)cc1-c1cccc2ccc(C(=O)N=C(N)N)cc12 [Example 34] .
3 to 30 nM

----------
Molecular target: human 5-HT5A receptor (Homo sapiens, UniProt P47898)
Ki overview

// solved cases for Ki follow
Structure notation | Tested system | Ki
NC(N)=NC(=O)c1ccc2cccc(-c3cc(F)ccc3F)c2c1 | human 5-HT5A receptor (Homo sapiens, UniProt P47898) | 0.3 to 3 nM
NC(N)=NC(=O)c1ccc2cccc(-c3c(F)cncc3Cl)c2c1 | human 5-HT5A receptor (Homo sapiens, UniProt P47898) | 0.3 to 3 nM
Cc1nc(C)c(-c2cccc3ccc(C(=O)N=C(N)N)cc23)s1 | human 5-HT5A receptor (Homo sapiens, UniProt P47898) | 3 to 30 nM
COc1cccc(-c2cccc3ccc(C(=O)N=C(N)N)cc23)n1 | human 5-HT5A receptor (Homo sapiens, UniProt P47898) | 3 to 30 nM

Please report the recorded Ki for N#Cc1ccc(-c2cccc3ccc(C(=O)N=C(N)N)cc23)s1 .
0.3 to 3 nM

Same thing, different molecule: NC(N)=NC(=O)c1ccc2cccc(-c3c(F)cc(O)cc3F)c2c1
0.3 to 3 nM

Same thing, different molecule: NC(N)=NC(=O)c1ccc2cccc(-c3c(Cl)cncc3Cl)c2c1
0.3 to 3 nM
